Molecular target: recombinant F508del V470 CFTR in Fischer rat thyroid (FRT) cells (Homo sapiens, UniProt P13569, DEL508-508)
Sequence (P13569 with tags, fused parts or gaps DEL508-508): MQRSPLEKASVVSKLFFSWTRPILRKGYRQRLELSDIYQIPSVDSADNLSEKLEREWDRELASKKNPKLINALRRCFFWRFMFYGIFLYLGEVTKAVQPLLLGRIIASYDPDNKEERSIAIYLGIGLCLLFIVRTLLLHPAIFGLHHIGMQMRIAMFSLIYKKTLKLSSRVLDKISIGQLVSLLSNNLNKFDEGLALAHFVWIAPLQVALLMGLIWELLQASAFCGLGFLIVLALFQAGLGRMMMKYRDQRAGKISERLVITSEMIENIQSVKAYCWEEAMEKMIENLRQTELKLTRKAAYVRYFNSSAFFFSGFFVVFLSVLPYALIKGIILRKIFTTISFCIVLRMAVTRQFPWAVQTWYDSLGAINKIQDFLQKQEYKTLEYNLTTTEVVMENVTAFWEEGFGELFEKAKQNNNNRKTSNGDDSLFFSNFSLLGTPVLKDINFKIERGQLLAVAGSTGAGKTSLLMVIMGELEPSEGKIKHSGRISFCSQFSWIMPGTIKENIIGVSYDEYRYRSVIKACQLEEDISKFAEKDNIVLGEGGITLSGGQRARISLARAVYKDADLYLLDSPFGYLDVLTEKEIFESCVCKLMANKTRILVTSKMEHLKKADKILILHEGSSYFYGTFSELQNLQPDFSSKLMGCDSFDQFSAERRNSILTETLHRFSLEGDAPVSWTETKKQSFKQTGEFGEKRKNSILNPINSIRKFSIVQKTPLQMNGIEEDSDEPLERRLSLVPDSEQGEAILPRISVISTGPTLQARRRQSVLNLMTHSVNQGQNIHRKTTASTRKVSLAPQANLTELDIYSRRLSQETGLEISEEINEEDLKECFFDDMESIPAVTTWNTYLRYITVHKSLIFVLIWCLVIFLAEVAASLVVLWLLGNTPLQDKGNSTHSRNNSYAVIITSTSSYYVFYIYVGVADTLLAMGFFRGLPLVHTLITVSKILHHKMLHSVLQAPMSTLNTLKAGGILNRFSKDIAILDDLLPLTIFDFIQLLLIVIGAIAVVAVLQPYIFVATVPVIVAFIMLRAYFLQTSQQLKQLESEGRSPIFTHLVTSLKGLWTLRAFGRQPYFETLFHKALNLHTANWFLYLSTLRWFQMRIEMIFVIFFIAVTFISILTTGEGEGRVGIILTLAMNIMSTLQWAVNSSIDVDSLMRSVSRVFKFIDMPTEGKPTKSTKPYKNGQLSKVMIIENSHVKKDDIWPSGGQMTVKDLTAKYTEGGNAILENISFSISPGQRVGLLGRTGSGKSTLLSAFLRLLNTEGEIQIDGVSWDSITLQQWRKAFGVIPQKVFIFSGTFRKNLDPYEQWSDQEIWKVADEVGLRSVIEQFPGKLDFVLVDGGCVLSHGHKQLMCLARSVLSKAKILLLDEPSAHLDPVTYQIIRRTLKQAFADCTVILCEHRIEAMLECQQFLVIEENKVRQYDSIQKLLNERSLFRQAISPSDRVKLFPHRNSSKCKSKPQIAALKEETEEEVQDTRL
Assay: FRT ion flux assay of F508del CFTR potentiation
Details: FRT cells expressing F508del V470 CFTR, forskolin 20 uM, 27° C. pre-incubation
QUANTITY: EC50 (nM)
Answer in nM, number only, no unit symbol.

Q) Look up EC50: CC(c1cnn(-c2ccc(F)cc2F)c1)n1c(C#N)c(-c2cnc(C(F)(F)F)nc2)c2c(N)ncnc21 (single isomer, unassigned) [Example 7]
A) 2.76

Q) # lookup: EC50 of CCC(c1cn(-c2ccc(F)c(F)c2)nn1)n1c(C#N)c(-c2cnc(C(F)(F)F)nc2)c2c(N)ncnc21 (single isomer, unassigned; enantiomer 1)
A) 49.9

Q) Suppose we examine the molecule COc1ncccc1-c1cn(Cc2cnn(-c3ccc(C(F)F)cc3)c2)c2ncnc(N)c12 ; what EC50 value has been reported?
A) 451

Q) Entry under review: Nc1ncnc2c1c(-c1cnc3[nH]ccc3c1)cn2Cc1cn(-c2ccccc2F)nn1 . Reported EC50?
A) 3780

Q) I would be grateful if you could share the reported EC50 for Nc1ncnc2c1c(-c1cccc3ncoc13)cn2Cc1cn(-c2ccccc2F)nn1 .
A) 235

Q) Returns the measured EC50 for the input molecule. Input: COc1ncccc1-c1cn(C(C)c2cn(-c3ccccc3F)nn2)c2ncnc(N)c12 (single isomer, unassigned; enantiomer 2) [Example 114]
A) 36.2

Q) For the molecule shown here, CCC(c1cn(-c2cccc(F)c2F)nn1)n1c(C#N)c(-c2cnc(C(F)(F)F)nc2)c2c(N)ncnc21 (single isomer, unassigned) [Example 18] , give the reported EC50.
A) 10.8

Q) What does the record list as EC50 for CCC(c1cn(-c2ccccc2F)nn1)n1c(C#N)c(-c2cnc(C(F)(F)F)nc2)c2c(N)ncnc21 (single isomer, unassigned) [Example 23] ?
A) 41.8

Q) May I ask what EC50 has been recorded for CC[C@H](c1cn(-c2ccc(F)cc2F)nn1)n1cc(-c2cnc(C(F)(F)F)nc2)c2c(N)ncnc21 (single isomer, unassigned) ?
A) 363

Q) Please look up its EC50: CCC(c1cn(-c2ccc(F)c(F)c2)nn1)n1cc(-c2cc(F)cnc2OC)c2c(N)ncnc21 (single isomer, unassigned; enantiomer 2) [Example 156]
A) 230

Q) Can you look up the measured EC50 of CCC(c1cn(-c2ccccc2F)nn1)n1cc(-c2cncnc2OC)c2c(N)ncnc21 (single isomer, unassigned; enantiomer 1) [Example 133] for me?
A) 918

Q) Would you mind telling me what EC50 value was observed for CC(c1cn(-c2ccccc2F)nn1)n1cc(C2CC2)c2c(N)ncnc21 (single isomer, unassigned) [Example 109] ?
A) 36.5

Q) Fill in the blank: the reported EC50 of CCC(c1cn(-c2ccc(OC)nc2)nn1)n1cc(-c2cnc(C(F)(F)F)nc2)c2c(N)ncnc21 (single isomer, unassigned; enantiomer 1) [Example 309] is ____.
A) 69

Q) Endpoint output: EC50 of CCC(c1cn(-c2cccc(F)c2F)nn1)n1cc(-c2cncnc2OC)c2c(N)ncnc21 (single isomer, unassigned; enantiomer 2) [Example 306] . Value?
A) 22.2

Q) I have this molecule here, CCC(c1cn(-c2ccccc2F)nn1)n1c(C#N)c(-c2ccc(OC(F)F)nc2)c2c(N)ncnc21 (single isomer, unassigned) , and I need its recorded EC50.
A) 21.5

Q) I would be grateful if you could share the reported EC50 for CC(c1cn(-c2ccccc2F)nn1)n1cc(-c2cccc3c2cnn3C)c2c(N)ncnc21 (stereo not shown) .
A) 2420

Q) Could you tell me which EC50 is on file for CCC(c1cn(-c2ccccc2F)nn1)n1cc(-c2cnc(C(F)F)nc2)c2c(N)ncnc21 (single isomer, unassigned; enantiomer 2) [Example 144] ?
A) 732

Q) Give the measured EC50 of CCC(c1cn(-c2ccccc2F)nn1)n1cc(-c2cncnc2OC)c2c(N)nc(C)nc21 (stereo not shown) [Example 302] .
A) 232

====

Molecular target: CFTR in F508del/F508del primary CF hBE cells (Homo sapiens, UniProt P13569, DEL508-508)
Construct: Primary cystic fibrosis human bronchial epithelial (CF hBE) cells were expanded and cultured; endogenous in cells
Experiment: Ussing chamber electrophysiology assay of CFTR potentiation in F508del/F508del CF bronchial epithelial cells (27° C.)
pEC50: −log10 of the molar value.
Label condition met when pEC50 is at or above 7; anything below gets condition not met.

Q) Item COc1ncncc1-c1cn(C(c2cn(-c3ccccc3F)nn2)C2COC2)c2ncnc(N)c12 (centres unmarked) with pEC50 of 7 or above?
A) condition not met

Q) hey, is pEC50 for this one >= 7? CC[C@@H](c1cn(-c2ccc(F)cc2F)nn1)n1cc(-c2cnc(C(F)(F)F)nc2)c2c(N)ncnc21 (single isomer, unassigned)
A) condition met

Q) // inclusive: pEC50 at least 7? input: CCC(c1cnn(-c2ccccc2F)c1)n1c(C#N)c(-c2cnc(C(F)(F)F)nc2)c2c(N)ncnc21 (single isomer, unassigned) [Example 4]
A) condition met

Q) Exam item: decide whether the reported pEC50 for Nc1ncnc2c1c(-c1ncco1)cn2Cc1cn(-c2ccccc2F)nn1 is at least 7.
A) condition not met

Q) Reported pEC50 at or above 7? Nc1ncnc2c1c(-c1cnc(C(F)(F)F)nc1)c(Br)n2Cc1cnn(-c2ccccc2F)c1
A) condition met

Q) Does CCC(c1cn(-c2cccc(F)c2F)nn1)n1c(C#N)c(-c2cnc(C(F)(F)F)nc2)c2c(N)ncnc21 (single isomer, unassigned) [Example 19] have a reported pEC50 of at least 7?
A) condition met

Q) Please check the record CC(c1cn(-c2ccccc2F)nn1)n1cc(-c2ccc(OC3CC3)nc2)c2c(N)ncnc21 (centres unmarked) [Example 213] and state if its pEC50 is at or above 7.
A) condition met

Q) Could you please find out whether Cc1c(C(C)n2c(C#N)c(-c3cnc(C(F)(F)F)nc3)c3c(N)ncnc32)nnn1-c1ccccc1F (single isomer, unassigned) [Example 12] has pEC50 that meets 7 or exceeds it?
A) condition met

Q) Given CCC(c1cn(-c2ccccc2F)nn1)n1c(C#N)c(-c2cnc(C(F)(F)F)nc2)c2c(N)ncnc21 (single isomer, unassigned) [Example 23] , state whether its pEC50 is at least 7.
A) condition met

Q) Decide: pEC50 of CC(c1cnn(-c2ccccc2F)c1)n1c(C#N)c(-c2cnc(C(F)(F)F)nc2)c2c(N)ncnc21 (single isomer, unassigned) [Example 5] >= 7?
A) condition met

Q) Identify whether the reported pEC50 of the following compound is 7 or greater: COc1ncc(-c2cn(C(C)c3cc(-c4ccccc4F)no3)c3ncnc(N)c23)cn1 (single isomer, unassigned; (-)) [Example 183]
A) condition not met

====

Target: recombinant F508del V470 CFTR in Fischer rat thyroid (FRT) cells (Homo sapiens, UniProt P13569, DEL508-508)
Assay: FRT ion flux assay of F508del CFTR potentiation
Conditions: FRT cells expressing F508del V470 CFTR, forskolin 20 uM, 27° C. pre-incubation
pEC50: −log10 of the molar value.
Please enter yes where pEC50 is greater than or equal to 7, and no where it is lower.

Q) Please check the record CCC(c1cn(-c2ccccc2F)nn1)n1cc(-c2ccc(OC(F)F)nc2)c2c(N)ncnc21 (single isomer, unassigned; enantiomer 1) [Example 141] and state if its pEC50 is at or above 7.
A) no

Q) Item CCC(c1cn(-c2cc(F)ccc2F)nn1)n1cc(-c2cncnc2OC)c2c(N)ncnc21 (single isomer, unassigned; enantiomer 2) [Example 308] with pEC50 of 7 or above?
A) no

Q) Check if pEC50 >= 7 (inclusive). Item: COc1cccnc1-c1cn(Cc2cn(-c3ccccc3F)nn2)c2ncnc(N)c12
A) no

Q) Please check the record COCC1CC1c1cn(Cc2cn(-c3ccccc3F)nn2)c2ncnc(N)c12 (stereo not drawn) and state if its pEC50 is at or above 7.
A) no

Q) Could you please find out whether Cn1cc2cc(-c3cn(Cc4cn(-c5ccccc5F)nn4)c4ncnc(N)c34)ccc2n1 has pEC50 that meets 7 or exceeds it?
A) no

Q) Reported pEC50 reaches at least 7 for CCC(c1cn(-c2ccc(F)cc2F)nn1)n1cc(-c2cc(F)cnc2OC)c2c(N)ncnc21 (single isomer, unassigned; enantiomer 2) [Example 164] ?
A) yes

Q) Could you tell me if the measured pEC50 of N#Cc1c(-c2cnc(C(F)(F)F)nc2)c2c(N)ncnc2n1Cc1cn(-c2ccccc2F)nn1 reaches 7 or more?
A) yes

Q) Determine whether measured pEC50 meets or exceeds 7 for CCC(c1cn(-c2ccccc2F)nn1)n1cc(-c2nccnc2OC)c2c(N)ncnc21 (stereo not drawn) [Example 251]
A) yes

Q) Is pEC50 at least 7? Consider CCC(c1cn(-c2ccc(F)cc2F)nn1)n1cc(-c2cncnc2OC)c2c(N)ncnc21 (single isomer, unassigned; enantiomer 2) [Example 160]
A) no

Q) Given CCC(c1cn(-c2cc(F)cc(F)c2)nn1)n1cc(-c2cnc(C(F)(F)F)nc2)c2c(N)ncnc21 (single isomer, unassigned; enantiomer 1) [Example 311] , state whether its pEC50 is at least 7.
A) no

Q) Assess whether reported pEC50 for Nc1ncnc2c1c(-c1ccc3c(c1)CCO3)cn2Cc1cn(-c2ccccc2F)nn1 sits at 7 or higher.
A) no

Q) Is it the case that CCC(c1cn(-c2ccccc2F)nn1)n1cc(C2CC2)c2c(N)ncnc21 (single isomer, unassigned; enantiomer 2) [Example 316] has pEC50 reaching or exceeding 7?
A) no

Q) # bool: pEC50 of CC(c1cn(-c2ccccc2F)nn1)n1cc(-c2cnc3ccccc3c2)c2c(N)ncnc21 (stereo not drawn) >= 7
A) no

Q) Hello, I need to know if CC(c1cc(-c2ccccc2F)no1)n1cc(-c2ccc(Cl)cc2)c2c(N)ncnc21 (stereo not drawn) [Example 258] has measured pEC50 not below 7. Thanks!
A) no

Q) Item CCC(c1cn(-c2ccc(OC)nc2)nn1)n1cc(-c2cnc(C(F)(F)F)nc2)c2c(N)ncnc21 (single isomer, unassigned; enantiomer 2) [Example 310] with pEC50 of 7 or above?
A) no

Q) Could you verify whether the entry CC(c1cn(-c2ccc(F)cc2F)nn1)n1cc(-c2cnc(C(F)(F)F)nc2)c2c(N)ncnc21 (single isomer, unassigned; enantiomer 1) [Example 123] shows pEC50 of no less than 7?
A) yes

Q) Reported pEC50 at or above 7? CCC(c1cn(-c2ccccc2F)nn1)n1cc(-c2cnc(C(F)(F)F)nc2)c2c(N)ncnc21 (single isomer, unassigned; enantiomer 2) [Example 138]
A) no

Q) Quick check: does COc1cc(-c2cn(Cc3cn(-c4ccccc4F)nn3)c3ncnc(N)c23)ccc1C#N have pEC50 greater than or equal to 7?
A) no

Q) Form field: pEC50 at least 7? Entry: CC(c1cn(-c2ccccc2F)nn1)n1cc(-c2ccc(Cl)c(F)c2)c2c(N)ncnc21 (stereo not drawn)
A) yes

Q) Textbook exercise: given the entry CC(c1cc(-c2ccccc2F)no1)n1cc(-c2ccc(-c3ncns3)cc2)c2c(N)ncnc21 (stereo not drawn) , state whether its pEC50 is greater than or equal to 7.
A) no

Source of measurements: patent US12612409B2
